All figures here come from patent US20030148956A1.

Listed binders paired with reported CRF2R EC50
Target: T1, CRF2R
T1 sequence (Q13324 whole entry, species assumed, looked up): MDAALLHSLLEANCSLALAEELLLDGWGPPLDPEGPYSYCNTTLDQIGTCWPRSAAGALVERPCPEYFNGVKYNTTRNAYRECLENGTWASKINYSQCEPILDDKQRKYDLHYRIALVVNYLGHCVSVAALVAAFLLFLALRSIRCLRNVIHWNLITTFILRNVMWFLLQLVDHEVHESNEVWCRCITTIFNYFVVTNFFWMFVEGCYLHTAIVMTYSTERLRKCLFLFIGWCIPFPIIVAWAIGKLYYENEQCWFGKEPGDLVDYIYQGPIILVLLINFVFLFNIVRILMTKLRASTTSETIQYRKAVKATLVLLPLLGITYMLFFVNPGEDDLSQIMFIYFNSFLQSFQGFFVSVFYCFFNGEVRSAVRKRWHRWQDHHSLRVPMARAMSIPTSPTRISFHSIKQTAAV
Assay: cell-based or functional assay
Ends that are not written are not given here.
property: CRF2R EC50 (nM)

- binder: "SQEPPISLDLPFELLREVLEMTKADQLAQQAHSNRKLLDIA-NH2 [SEQ ID NO 97]"
  quantitative.readout: 100
- binder: "IVLSLDVPIGLLQILLEQRRAAREQATTNARILARV-NH2 [SEQ ID NO 133]"
  quantitative.readout: 12.2
- binder: "SQEPPISLDLPFQLLREVLEMTKADQLAQQAHSNRKLLDIA-NH2 [SEQ ID NO 91]"
  quantitative.readout: 100
